system: MCF7; test: Cytotoxicity against human MCF7 cells after 48 hrs by SRB assay; type: functional, cell-based; settings: MCF7, 48 h

query_smiles | IC50
C[C@H]1O[C@@H](O[C@H]2CC[C@@]3(C)[C@@H](CC[C@]4(C)[C@@H]3C=C[C@]35OC[C@@]6(CCC(C)(C)C[C@H]63)[C@@H](O)C[C@]54C)[C@]2(C)CO)[C@H](O[C@@H]2O[C@H](CO)[C@@H](O)[C@H](O)[C@H]2O)[C@@H](O[C@@H]2O[C@H](CO)[C@@H](O)[C@H](O)[C@H]2O)[C@H]1O | > 50 µM

====

tested on: C32; test: Cytotoxicity against human C32 cells after 48 hrs by SRB assay; format: functional, cell-based
readout: Activity

compound | measured
C[C@H]1O[C@@H](O[C@H]2CC[C@@]3(C)[C@@H](CC[C@]4(C)[C@@H]3C=C[C@]35OC[C@@]6(CCC(C)(C)C[C@H]63)[C@@H](O)C[C@]54C)[C@]2(C)CO)[C@H](O[C@@H]2O[C@H](CO)[C@@H](O)[C@H](O)[C@H]2O)[C@@H](O[C@@H]2O[C@H](CO)[C@@H](O)[C@H](O)[C@H]2O)[C@H]1O [BUDDLEJASAPONIN IV] | Dose-dependent effect
CC[C@]1(O)C[C@@H]2CN(CCc3c([nH]c4ccccc34)[C@@](C(=O)OC)(c3cc4c(cc3OC)N(C)[C@H]3[C@@](O)(C(=O)OC)[C@H](OC(C)=O)[C@]5(CC)C=CCN6CC[C@]43[C@@H]65)C2)C1.O=S(=O)(O)O [VINBLASTINE SULFATE] | Dose-dependent effect
CC(=O)O[C@H]1C(=O)[C@@]2(C)[C@H]([C@H](OC(=O)c3ccccc3)[C@]3(O)C[C@H](OC(=O)[C@H](O)[C@@H](NC(=O)c4ccccc4)c4ccccc4)C(C)=C1C3(C)C)[C@]1(OC(C)=O)CO[C@@H]1C[C@@H]2O [PACLITAXEL] | Dose-dependent effect
C[C@H]1O[C@@H](O[C@H]2CC[C@@]3(C)[C@@H](CC[C@]4(C)[C@@H]3C=C[C@]35OC[C@@]6(CCC(C)(C)C[C@H]63)[C@@H](O)C[C@]54C)[C@]2(C)CO)[C@H](O)[C@@H](O[C@@H]2O[C@H](CO)[C@@H](O)[C@H](O)[C@H]2O)[C@H]1O [SAIKOSAPONIN A] | Dose-dependent effect
C[C@H]1O[C@@H](O[C@H]2CC[C@@]3(C)[C@@H](CC[C@]4(C)[C@@H]3C=C[C@]35OC[C@@]6(CCC(C)(C)C[C@H]63)[C@@H](O)C[C@]54C)[C@]2(C)CO)[C@H](O)[C@@H](O[C@@H]2O[C@H](CO)[C@@H](O)[C@H](O[C@@H]3O[C@H](CO)[C@@H](O)[C@H](O)[C@H]3O[C@@H]3O[C@H](CO)[C@@H](O)[C@H](O)[C@H]3O)[C@H]2O)[C@H]1O [SONGAROSAPONIN D] | Dose-dependent effect

Values compiled from ChEMBL document CHEMBL1152950.
